tested on: SN12C renal; assay: NCI-60 one-dose screen, 48 h (100 = growth as untreated, 0 = no growth, -100 = all killed); settings: 10 µM unless noted
The panel holds about 83,000 compounds, 20% with a hit somewhere; the sample as a whole holds those more often.

- molecule: "O=C1CC2C=CCN2C=C1NC(=O)C1CCCCC1 (stereo not drawn)"
  scale-unit: "%"
  growth: 110
- molecule: "Cc1nn(-c2ccccc2)c(N2CCCCC2)c1/C=N/NC(=O)Cn1c(=O)sc2ccccc21"
  scale-unit: "%"
  growth: 85
- molecule: "CS(=O)(=O)Cc1cnc(C2OCCO2)s1"
  scale-unit: "%"
  growth: 114

* * *

test system: SF-539 CNS; assay: NCI-60 one-dose screen, 48 h; conditions: 10 µM unless noted
About 83,000 compounds went through this panel and 20% of them were active in at least one assay; those are over-represented in the sample as a whole. Calls of active or inactive are those of the source. Rule for the calls: active = growth percent below 10; inactive = the rest.
Outcome codes: true (1) for active, false (0) for inactive

- smiles-entry: "CCOC(=O)CSc1nc2sc3c(c2c(=O)n1-c1ccc([N+](=O)[O-])cc1)CCCCC3"
  assigned-class: "false (0)"
- smiles-entry: "CS(=O)(=O)Cc1cnc(C2OCCO2)s1"
  assigned-class: "false (0)"
- smiles-entry: "COc1ccc2cc(Cn3cc[n+](Cc4ccc5ccccc5c4)c3)ccc2c1"
  assigned-class: "false (0)"
- smiles-entry: "Cc1nc2ccccc2c(/C=C/c2ccc(C(F)(F)F)cc2)c1C(=O)/C=C/c1ccccc1"
  assigned-class: "true (1)"
- smiles-entry: "C=NNc1ccccc1"
  assigned-class: "false (0)"
- smiles-entry: "C/C(=N\\O)C(=O)NCCCCCC(=O)Nc1ccccc1"
  assigned-class: "false (0)"
- smiles-entry: "Cc1[nH]c(/C=C/C(=O)c2ccc(C(F)(F)F)c(F)c2)c(C)c1C(=O)NCC(C)C"
  assigned-class: "false (0)"
- smiles-entry: "CN(CCC#N)c1ccc(/C=C2\\NC(=O)NC2=O)cc1"
  assigned-class: "false (0)"
- smiles-entry: "CC1(C)CC[C@]2(C(=O)O)CC[C@]3(C)C(=CC[C@@H]4[C@@]5(C)C[C@@H](Cc6cn([C@@H]7O[C@H](CO)[C@@H](O)[C@H](O)[C@H]7O)nn6)[C@H](O)C(C)(C)[C@@H]5CC[C@]43C)[C@@H]2C1"
  assigned-class: "false (0)"

* * *

system: SNB-19 CNS; assay: NCI-60 one-dose screen, 48 h (100 = growth as untreated, 0 = no growth, -100 = all killed); details: 10 µM unless noted
Compounds without any hit were thinned out: in the full panel of roughly 83,000, 20% have a hit.
Tick True if growth is 70% or greater. Tick False if growth is less than 70%.

- compound: "CN1CCN(C(=O)c2cc(-c3ccc4ncnc(N5CCc6cc(F)c(Cl)cc65)c4c3)cnc2N)CC1"
  assigned-class: "False"
- compound: "C[N+](C)(C/C=C/c1ccccc1)Cc1ccccc1"
  assigned-class: "True"
- compound: "O=C1Nc2ccc(F)cc2/C1=C\\c1nc(-c2ccccc2F)n2ccccc12"
  assigned-class: "True"
- compound: "CCOC(=O)/C=C/c1c(C)[nH]c(=O)[nH]c1=O"
  assigned-class: "True"
- compound: "CN1CCN(CCCOC(=O)c2c3c(n4ccccc24)C(=O)c2ncccc2C3=O)CC1"
  assigned-class: "False"
- compound: "C/C(=N\\O)C(=O)NCCCCCC(=O)Nc1ccccc1"
  assigned-class: "True"
- compound: "COc1ccc(C2C(C#N)=C(N)Oc3c2sc2c(Br)cccc32)cc1 (stereo not given)"
  assigned-class: "False"
- compound: "O=C(/C=C/C12c3ccccc3C(c3ccccc31)C1C(=O)NC(=O)C12)c1ccccn1 (stereo not given)"
  assigned-class: "False"
- compound: "Cn1cc(C(=O)c2nc(-c3c[nH]c4ccc(Br)cc34)no2)c2cc(Br)ccc21"
  assigned-class: "True"

Data provenance is PubChem BioAssay (NCI).
